Where a SMILES comes first, the peptide text is derived from it.
Measurement Type: pKd
Just so you know, pKd here is -log10 of the concentration in molar units; reply with that number alone.

Input line: Give the observed pKd of CCCCCCCCCCCCCCCC(=O)Oc1ccc(C[C@H](NC(=O)[C@@H](NC(=O)[C@H](CCCN=C(N)N)NC(=O)CNC)C(C)C)C(=O)N[C@H](C(=O)N[C@@H](Cc2c[nH]cn2)C(=O)N2CCC[C@H]2C(=O)N[C@@H](Cc2ccccc2)C(=O)O)C(C)C)cc1 for Type-1 angiotensin II receptor (Bos taurus, UniProt P25104).
Output line: 8.45

Input line: # return pKd for CNCC(=O)N[C@@H](CCCNC(=N)N)C(=O)N[C@H](C(=O)N[C@@H](Cc1ccc(O)cc1)C(=O)N[C@H](C(=O)N[C@@H](Cc1cnc[nH]1)C(=O)N1CCC[C@H]1C(=O)N[C@H](Cc1ccc2ccccc2c1)C(=O)O)C(C)C)C(C)C , test system: Type-1 angiotensin II receptor (Bos taurus, UniProt P25104)
Sequence (P25104 whole entry): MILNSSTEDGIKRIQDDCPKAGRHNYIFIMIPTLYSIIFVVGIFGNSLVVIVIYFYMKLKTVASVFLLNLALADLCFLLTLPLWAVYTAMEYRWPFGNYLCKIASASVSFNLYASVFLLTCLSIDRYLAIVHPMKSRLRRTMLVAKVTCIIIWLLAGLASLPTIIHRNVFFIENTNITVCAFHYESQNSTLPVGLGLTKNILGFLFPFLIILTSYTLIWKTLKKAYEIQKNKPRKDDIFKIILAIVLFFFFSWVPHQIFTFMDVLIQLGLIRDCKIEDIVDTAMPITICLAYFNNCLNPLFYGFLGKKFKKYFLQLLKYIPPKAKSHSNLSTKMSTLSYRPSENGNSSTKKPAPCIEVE
Output line: 7.78

Input line: Enter pKd (test system Type-1 angiotensin II receptor (Bos taurus, UniProt P25104)) for CC(C)[C@H](NC(=O)[C@H](CCCNC(=N)N)NC(=O)[C@@H](N)CO)C(=O)N[C@@H](Cc1ccc(O)cc1)C(=O)N[C@H](C(=O)N[C@@H](Cc1cnc[nH]1)C(=O)N1CCC[C@H]1C(=O)N[C@@H](Cc1ccccc1)C(=O)O)C(C)C (H-SRVYVHPF-OH)
Output line: 8.12

Input line: GET pKd where system = Type-1 angiotensin II receptor (Bos taurus, UniProt P25104) and item = CC(C)[C@H](NC(=O)[C@H](CCCN=C(N)N)NC(=O)CCO)C(=O)N[C@@H](Cc1ccc(O)cc1)C(=O)N[C@H](C(=O)N[C@@H](Cc1c[nH]cn1)C(=O)N1CCC[C@H]1C(=O)N[C@H](Cc1ccccc1)C(=O)O)C(C)C
Output line: 5.19

###

Target: Type-1 angiotensin II receptor (Oryctolagus cuniculus)
Sequence (P34976 whole entry): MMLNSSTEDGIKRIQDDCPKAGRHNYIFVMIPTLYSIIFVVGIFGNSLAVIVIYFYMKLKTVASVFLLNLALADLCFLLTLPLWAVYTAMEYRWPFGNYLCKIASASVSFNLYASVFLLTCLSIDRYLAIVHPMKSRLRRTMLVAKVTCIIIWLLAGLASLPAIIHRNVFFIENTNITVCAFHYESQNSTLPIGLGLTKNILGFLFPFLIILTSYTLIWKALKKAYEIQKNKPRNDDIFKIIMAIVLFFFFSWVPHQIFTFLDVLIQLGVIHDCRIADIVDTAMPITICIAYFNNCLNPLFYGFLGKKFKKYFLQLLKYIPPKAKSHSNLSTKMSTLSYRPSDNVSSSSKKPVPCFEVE
Assay: Negative log of the dose of antagonist (compound) that reduces response of a double dose of […] to that of a single dose, on rabbit aorta
Format: functional, tissue-based
Conditions: read-out: pA2 (converted)
Measurement Type: Kb (nM)
Give the number; nM is assumed, so skip it.

Input line: For CNCC(=O)N[C@@H](CCCNC(=N)N)C(=O)N[C@H](C(=O)N[C@@H](Cc1ccc(O)cc1)C(=O)N[C@H](C(=O)N[C@@H](Cc1cnc[nH]1)C(=O)N1CCC[C@H]1C(=O)N[C@H](Cc1ccc2ccccc2c1)C(=O)O)C(C)C)C(C)C , write its Kb.
Output line: 7.94

Input line: Report measured Kb; entry is CC(C)[C@H](NC(=O)[C@H](CCCN=C(N)N)NC(=O)CCO)C(=O)N[C@@H](Cc1ccc(O)cc1)C(=O)N[C@H](C(=O)N[C@@H](Cc1c[nH]cn1)C(=O)N1CCC[C@H]1C(=O)N[C@H](Cc1ccccc1)C(=O)O)C(C)C
Output line: 4900

Input line: Note Kb for the compound shown: CCCCCCCCCCCCCCCC(=O)Oc1ccc(C[C@H](NC(=O)[C@@H](NC(=O)[C@H](CCCN=C(N)N)NC(=O)CNC)C(C)C)C(=O)N[C@H](C(=O)N[C@@H](Cc2c[nH]cn2)C(=O)N2CCC[C@H]2C(=O)N[C@@H](Cc2ccccc2)C(=O)O)C(C)C)cc1
Output line: 36.3

Input line: Tell me its Kb given CCCCCCCCCCCCCCCC(=O)Oc1ccc(C[C@H](NC(=O)[C@@H](NC(=O)[C@H](CCCNC(=N)N)NC(=O)CNC)C(C)C)C(=O)N[C@H](C(=O)N[C@@H](Cc2cnc[nH]2)C(=O)N2CCC[C@H]2C(=O)N[C@H](Cc2ccc3ccccc3c2)C(=O)O)C(C)C)cc1 as the entry.
Output line: 102

Values were extracted from ChEMBL document CHEMBL1130396.
